// data source = the supplement of paper PMC5919970

# Tested on: TYKNU
# TEST DESCRIPTION: fractional viability relative to vehicle; TYKNU is a high-grade serous ovarian cancer line; higher = less growth inhibition
# PROTOCOL CONDITIONS: 2uM; 72 h; genotype: sgCTRLA1 (non-targeting control)
Structures can show the parent of a compound that is named as a salt. The full ranking holds about 2,000 compounds; the median of “fractional viability relative to vehicle” is about 0.91, and the lowest 2% start at about 0.045. For the sample, the lowest values were picked, then their nearest neighbours and some compounds at random.
Form field: fractional viability (one value per entry).
PROPERTY LABEL: fractional viability

INSERT INTO measurements (molecule, subject_of_test, recorded_result) VALUES
  ('COc1cccc2c1C(=O)c1c(O)c3c(c(O)c1C2=O)C[C@@](O)(C(=O)CO)C[C@@H]3O[C@H]1C[C@H](N)[C@H](O)[C@H](C)O1', 'TYKNU', 0.212),
  ('Cc1[nH]c(/C=C2\C(=O)Nc3ccc(S(=O)(=O)N(C)c4cccc(Cl)c4)cc32)c(C)c1C(=O)N1CCN(C)CC1', 'TYKNU', 0.999),
  ('CC(=O)OCOC(=O)CN(CC(=O)OCOC(C)=O)c1ccccc1OCCOc1ccccc1N(CC(=O)OCOC(C)=O)CC(=O)OCOC(C)=O', 'TYKNU', 0.569),
  ('Clc1ccc(NN=C(c2ccccc2)c2ccccn2)nc1', 'TYKNU', 0.0468),
  ('CNC(=O)c1ccc(Nc2ncc(C(F)(F)F)c(NCc3nccnc3N(C)S(C)(=O)=O)n2)cc1', 'TYKNU', 0.772),
  ('O=c1ncccn1[C@@H]1O[C@H](CO)[C@@H](O)[C@H]1O', 'TYKNU', 1.06),
  ('O=[N+]([O-])c1ccc2c(c1)S(=O)(=O)C=C2', 'TYKNU', 0.101),
  ('CCOc1ccc(Cc2cc([C@@H]3O[C@H](SC)[C@@H](O)[C@H](O)[C@H]3O)ccc2Cl)cc1', 'TYKNU', 1.02),
  ('CC(=O)Oc1ccccc1C(=O)O', 'TYKNU', 1.09),
  ('CCN(CC)C(=S)SSC(=S)N(CC)CC', 'TYKNU', 0.291),
  ('Cc1ccc(S(=O)(=O)/C=C/C#N)cc1', 'TYKNU', 0.0355),
  ('CS(=O)(=O)Nc1ccc([N+](=O)[O-])cc1Oc1ccccc1 [Nimesulide]', 'TYKNU', 1.1),
  ('CC(=O)[C@]1(O)Cc2c(O)c3c(c(O)c2[C@@H](O[C@H]2C[C@H](N)[C@H](O)[C@H](C)O2)C1)C(=O)c1ccccc1C3=O [Idarubicin HCl]', 'TYKNU', 0.165),
  ('CC1(C)CC[C@]2(NC(=O)C(C)(F)F)CC[C@]3(C)[C@H](C(=O)C=C4[C@@]5(C)C=C(C#N)C(=O)C(C)(C)[C@@H]5CC[C@]43C)[C@@H]2C1 [Omaveloxolone (RTA-408)]', 'TYKNU', 0.0407),
  ('CC(C)(C)c1ccc(S(=O)(=O)/C=C/C#N)cc1', 'TYKNU', 0.091),
  ('CCS(=O)(=O)N1CCC([C@@H](C)n2c(C)c(C(=O)NCc3c(OC)cc(C)[nH]c3=O)c3ccccc32)CC1', 'TYKNU', 0.93),
  ('CN(C)C(=S)NN=C(c1ccccn1)c1ccccn1', 'TYKNU', 0.132);
